Where do the numbers come from? From patent US20230192831A1.

# SYSTEM TESTED: recombinant human GREM1 (hGREM1-His; C-terminal 10His tagged, R&D, #5190-GR) (human) (UniProt O60565)
# Sequence (O60565 other isoform, or with tags, fused parts or gaps limits assumed, form in doubt): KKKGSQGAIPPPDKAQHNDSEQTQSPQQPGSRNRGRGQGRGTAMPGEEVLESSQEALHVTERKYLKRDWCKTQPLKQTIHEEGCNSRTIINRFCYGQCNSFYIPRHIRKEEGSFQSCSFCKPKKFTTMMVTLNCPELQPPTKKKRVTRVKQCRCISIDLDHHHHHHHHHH
# EXPERIMENT NOTES: cell-based or functional assay
VALUE KIND: IC50 [M], W-20-17/BRE-luc luciferase bioassay, 100 pM hBMP4 and 10 nM hGREM1-His (M)
The response must be a number in M with no trailing unit.

The cases that follow already have their IC50 [M], W-20-17/BRE-luc luciferase bioassay, 100 pM hBMP4 and 10 nM hGREM1-His on record.
BINDER	MEAS VALUE
H4H2892N (antibody, human IgG4, V domains shown) VH: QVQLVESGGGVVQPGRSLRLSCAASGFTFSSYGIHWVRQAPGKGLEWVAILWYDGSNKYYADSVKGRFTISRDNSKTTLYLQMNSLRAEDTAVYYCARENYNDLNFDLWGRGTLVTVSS VL: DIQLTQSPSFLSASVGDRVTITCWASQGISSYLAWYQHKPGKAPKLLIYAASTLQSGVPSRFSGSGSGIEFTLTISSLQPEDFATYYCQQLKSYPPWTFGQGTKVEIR	9.5e-10
H4H6270P (antibody, human IgG4, V domains shown) VH: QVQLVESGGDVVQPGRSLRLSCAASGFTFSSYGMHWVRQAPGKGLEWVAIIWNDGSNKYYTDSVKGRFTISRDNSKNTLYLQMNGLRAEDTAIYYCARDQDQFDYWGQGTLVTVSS VL: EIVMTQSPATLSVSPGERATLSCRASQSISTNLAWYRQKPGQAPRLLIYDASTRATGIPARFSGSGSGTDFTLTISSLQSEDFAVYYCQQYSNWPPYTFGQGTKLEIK	5.4e-10

Kindly review the next binder as well.
input: Give its IC50 [M], W-20-17/BRE-luc luciferase bioassay, 100 pM hBMP4 and 10 nM hGREM1-His value. Item: H4H6243P (antibody, human IgG4, V domains shown) VH: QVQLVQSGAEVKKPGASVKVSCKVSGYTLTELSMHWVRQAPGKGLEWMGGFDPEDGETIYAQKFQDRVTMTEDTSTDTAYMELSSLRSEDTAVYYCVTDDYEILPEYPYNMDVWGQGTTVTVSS VL: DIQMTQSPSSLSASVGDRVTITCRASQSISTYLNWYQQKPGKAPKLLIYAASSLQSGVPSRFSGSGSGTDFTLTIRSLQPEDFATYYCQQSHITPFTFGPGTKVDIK
output: 5.4e-10
